Data origin, for the record: the nanobody polyreactivity screen of Harvey et al. (2022)

assay: yeast display, Sf9 membrane polyspecificity reagent, FACS + sequencing; frameworks hold sequencing errors
experimental readout: polyreactivity (PSR sort gate)

Answered examples (4):
Returns the measured polyreactivity (PSR sort gate) for the input sequence. Input: QVQLVESGGGLVEAGGSLRLSCAASGSTSRHNTMGWYRQAPGKERELVAAISGGGTTYYADSVKGRFTISRDNAKNTVYLQMNRLNPEDTAVDDCAAAFWGDYASSYRAGLDYWGQGTQETVSS
low polyreactivity

Next record, please: QVQLVESGGGLVQAGGSLRLSCAASGRTFGYTMGWYRQAPGKERELVAAITRSVTTYYADSVKGRFTISRDNAKNTVYLQMNSLKPEDTAVYYCAAVNTLREMYWGQGTQVTVSS
high polyreactivity

Next record, please: QVQLVESGGGLVQAGGSLRLSCAASGSIFWWNAMGWYRQAPGKERELVAAINWSTGRTYYADSVKGRFTISRDNAKNTVYLQMNSLKPEDTAVYYCNADSKSSYYWYLWYNYWGQGTQVTVSS
low polyreactivity

Next record, please: QVQLVESGGGLVQAGGSLRLSCAASGSTFRTYAMGWYRQAPGKEREFVAAIRYNGGSTYYADSVKGRFTISLDNAKNTVYLQMNSLKPEDTAVYYCAAATYYYRVSWLWYYLDDYWGQGTQVTVSS
high polyreactivity

Moving on to the next sequence.
Returns the measured polyreactivity (PSR sort gate) for the input sequence. Input: QVQLVESGGGLVQAGGSLRLSCAASGFIFGVYPMGWYRQAPGKERELVAAISRSGGSTYYADSVKGRFTISRDSAKNTVYLQMNSLNPEDTAVYYCATHVSLYGKGYYYWGQGTQVTVSS
high polyreactivity
